Target: human α1G subunits (T-type channels) (Homo sapiens)
Construct: expressed in transfected cells
Sequence (O43497 whole entry): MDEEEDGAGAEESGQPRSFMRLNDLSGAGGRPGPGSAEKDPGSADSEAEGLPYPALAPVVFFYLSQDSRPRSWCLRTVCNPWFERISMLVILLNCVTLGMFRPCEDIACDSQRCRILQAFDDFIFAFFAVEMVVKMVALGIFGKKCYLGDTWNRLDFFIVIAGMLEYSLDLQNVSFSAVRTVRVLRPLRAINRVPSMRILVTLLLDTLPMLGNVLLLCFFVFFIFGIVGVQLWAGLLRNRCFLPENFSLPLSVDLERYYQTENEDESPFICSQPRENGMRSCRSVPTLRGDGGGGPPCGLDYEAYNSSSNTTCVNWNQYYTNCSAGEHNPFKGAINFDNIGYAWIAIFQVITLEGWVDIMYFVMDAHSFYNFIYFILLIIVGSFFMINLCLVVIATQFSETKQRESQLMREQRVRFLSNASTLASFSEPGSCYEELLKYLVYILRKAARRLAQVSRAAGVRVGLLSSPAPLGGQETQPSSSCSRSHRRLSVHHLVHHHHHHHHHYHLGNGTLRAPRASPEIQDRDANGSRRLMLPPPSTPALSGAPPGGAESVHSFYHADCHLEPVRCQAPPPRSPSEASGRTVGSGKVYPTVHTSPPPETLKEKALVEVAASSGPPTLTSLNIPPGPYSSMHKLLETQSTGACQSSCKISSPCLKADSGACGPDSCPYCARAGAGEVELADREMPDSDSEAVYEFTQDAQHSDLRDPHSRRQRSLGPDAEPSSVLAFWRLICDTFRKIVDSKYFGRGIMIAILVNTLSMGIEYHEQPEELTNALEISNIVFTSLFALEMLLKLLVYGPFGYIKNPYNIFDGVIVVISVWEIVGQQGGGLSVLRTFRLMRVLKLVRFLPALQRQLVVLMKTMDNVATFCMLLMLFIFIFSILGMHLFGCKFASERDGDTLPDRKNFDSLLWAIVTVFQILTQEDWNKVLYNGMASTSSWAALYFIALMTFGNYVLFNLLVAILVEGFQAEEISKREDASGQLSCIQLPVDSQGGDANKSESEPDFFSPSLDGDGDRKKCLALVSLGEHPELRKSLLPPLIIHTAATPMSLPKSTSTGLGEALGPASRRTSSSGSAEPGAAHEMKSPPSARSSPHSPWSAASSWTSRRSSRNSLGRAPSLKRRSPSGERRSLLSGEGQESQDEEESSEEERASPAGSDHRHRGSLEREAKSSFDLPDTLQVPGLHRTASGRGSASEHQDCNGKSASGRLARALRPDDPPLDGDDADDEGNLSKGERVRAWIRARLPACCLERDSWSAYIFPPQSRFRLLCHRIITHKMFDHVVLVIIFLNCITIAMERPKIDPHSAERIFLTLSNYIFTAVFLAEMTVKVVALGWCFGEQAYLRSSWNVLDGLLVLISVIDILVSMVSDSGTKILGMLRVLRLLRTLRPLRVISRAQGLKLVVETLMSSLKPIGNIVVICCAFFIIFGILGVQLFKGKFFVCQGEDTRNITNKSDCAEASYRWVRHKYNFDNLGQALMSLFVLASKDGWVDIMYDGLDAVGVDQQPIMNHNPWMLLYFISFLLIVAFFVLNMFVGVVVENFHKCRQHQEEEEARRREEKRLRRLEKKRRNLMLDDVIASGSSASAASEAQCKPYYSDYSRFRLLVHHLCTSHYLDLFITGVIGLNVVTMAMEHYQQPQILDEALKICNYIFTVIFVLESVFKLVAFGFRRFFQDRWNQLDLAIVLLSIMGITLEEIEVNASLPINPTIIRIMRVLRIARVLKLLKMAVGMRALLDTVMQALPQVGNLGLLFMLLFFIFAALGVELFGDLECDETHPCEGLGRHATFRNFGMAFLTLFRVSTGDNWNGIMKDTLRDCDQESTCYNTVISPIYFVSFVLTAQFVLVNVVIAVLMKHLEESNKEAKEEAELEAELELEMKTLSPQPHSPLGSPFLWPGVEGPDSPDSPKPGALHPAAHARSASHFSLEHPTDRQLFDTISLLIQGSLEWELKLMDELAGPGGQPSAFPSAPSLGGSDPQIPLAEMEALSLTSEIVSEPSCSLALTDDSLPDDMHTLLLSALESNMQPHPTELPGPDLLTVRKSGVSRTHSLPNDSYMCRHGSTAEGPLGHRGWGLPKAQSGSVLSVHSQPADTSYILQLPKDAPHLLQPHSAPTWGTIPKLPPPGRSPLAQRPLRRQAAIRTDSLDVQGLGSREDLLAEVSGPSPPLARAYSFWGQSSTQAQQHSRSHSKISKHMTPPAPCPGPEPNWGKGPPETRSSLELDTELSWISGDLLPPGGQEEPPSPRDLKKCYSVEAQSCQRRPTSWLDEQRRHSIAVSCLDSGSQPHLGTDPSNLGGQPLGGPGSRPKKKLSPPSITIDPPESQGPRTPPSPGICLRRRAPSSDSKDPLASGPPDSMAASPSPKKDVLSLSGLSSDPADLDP
Experiment: Block of α1G T-type channels, patch clamp in HEK cell lines (Example 8)
Assay type: cell-based
Conditions: 80 mV (inactivation protocol); read-out: Block of α1G T-type Channels IC50, 80 mV
Method: Standard patch-clamp techniques were employed to identify blockers of T-type currents. Briefly, previously described HEK cell lines stably expressing human α1G subunits were used for all the recordings (passage #: 4-20, 37° C., 5% CO2). To obtain T-type currents, plastic dishes containing semi-confluent cells were positioned on the stage of a ZEISS AXIOVERT S100 microscope after replacing the culture medium with external solution (see below). […]
value type: IC50 (nM)

Worked examples, 3 compounds total:
compound	subject of test	value type	obs value
O=C(O)C1CN(C(c2ccccc2)c2ccccc2)CCN1C(=O)CC(c1ccccc1)c1ccccc1 (centres unmarked) [Compound P42]	human α1G subunits (T-type channels) (Homo sapiens)	IC50	1840
CCOC(=O)C1CN(C(c2ccccc2)c2ccccc2)CCN1C(=O)CC(c1ccccc1)c1ccccc1 (centres unmarked) [Compound P43]	human α1G subunits (T-type channels) (Homo sapiens)	IC50	279
O=C(CC(c1ccccc1)c1ccccc1)N1CCN(C(c2ccccc2)c2ccc(Cl)cc2Cl)CC1 (centres unmarked) [Compound P29]	human α1G subunits (T-type channels) (Homo sapiens)	IC50	4

a = O=C(CC(c1ccccc1)c1ccccc1)N1CCN(C(c2ccccc2)c2ccccc2Cl)CC1 (centres unmarked) [Compound P35]
b = O=C(CC(c1ccccc1)c1ccccc1)N1CCN(C(c2ccccc2)c2cccc(Cl)c2)CC1 (centres unmarked) [Compound P36]
c = CCOC(=O)C1CN(C(c2ccccc2)c2ccccc2)CCN1C(=O)CC(c1ccccc1)c1ccccc1 (centres unmarked) [Compound P41]
Query string: # rank_down: sort by IC50, max first A complete answer lists every label in the requested sequence.
Result string: c, a, b

A = O=C(O)C1CN(C(c2ccccc2)c2ccccc2)CCN1C(=O)CC1c2ccccc2-c2ccccc21 (centres unmarked) [Compound P38]
B = CC1CN(C(c2ccccc2)c2ccccc2)CCN1C(=O)CC(c1ccccc1)c1ccccc1 (centres unmarked) [Compound P37]
Query string: Consider A and B . Which of these has its IC50 at a higher number? Identify your pick by its label.
Result string: B
